Where these numbers come from: patent US20260325685A1

biological target: human CA-XII (Homo sapiens); construct: purchased Creative BioMart CA12-261H; assay: Surface Plasmon Resonance (SPR) binding kinetics to recombinant human CA-XII (Biacore 8K, single-cycle kinetics, 1:1 binding model); details: Chelated Metal: Lu-175, 25° C., pH 7.4, read-out: CAXII KD
Sequence (O43570 25-354): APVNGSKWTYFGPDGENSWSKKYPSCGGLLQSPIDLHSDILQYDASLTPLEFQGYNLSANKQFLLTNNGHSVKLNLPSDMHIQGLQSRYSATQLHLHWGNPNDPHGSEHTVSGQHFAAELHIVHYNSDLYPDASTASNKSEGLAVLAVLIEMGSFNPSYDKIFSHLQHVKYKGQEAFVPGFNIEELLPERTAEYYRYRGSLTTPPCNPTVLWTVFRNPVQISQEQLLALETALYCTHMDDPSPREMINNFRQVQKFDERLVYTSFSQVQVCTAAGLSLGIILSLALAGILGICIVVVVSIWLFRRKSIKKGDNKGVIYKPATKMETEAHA
pKd: −log10 of the molar value.
quantity_kind: pKd

Noted for CC(C)c1ccc(C(=O)N[C@@H](CC(=O)N[C@@H](CC(=O)N2CCN(C(=O)CN3CCN(CC(=O)O)CCN(CC(=O)O)CCN(CC(=O)O)CC3)C[C@H]2C(=O)NCCn2cc(C34CC(C(=O)Nc5nnc(S(N)(=O)=O)s5)(C3)C4)nn2)C(=O)O)C(=O)O)cc1.[Lu+3] [Compound 109.39] : its pKd reads 8.00 to 8.60

Further cases:
pKd reported for this molecule NS(=O)(=O)c1nnc(NC(=O)C23CC(c4cn(CCNC(=O)[C@@H]5CN(C(=O)CN6CCN(CC(=O)O)CCN(CC(=O)O)CCN(CC(=O)O)CC6)CCN5C(=O)C[C@H](NC(=O)C[C@H](NC(=O)c5n[nH]c6ccccc56)C(=O)O)C(=O)O)nn4)(C2)C3)s1.[Lu+3] [Compound 109.7] : 8.00 to 8.60

Data point: NS(=O)(=O)c1nnc(NC(=O)C23CC(c4cn(CCNC(=O)[C@@H]5CN(C(=O)CN6CCN(CC(=O)O)CCN(CC(=O)O)CCN(CC(=O)O)CC6)CCN5C(=O)C[C@H](NC(=O)C[C@H](NC(=O)CCCc5ccc(Cl)cc5)C(=O)O)C(=O)O)nn4)(C2)C3)s1.[Lu+3] [Compound 109.37] ; pKd = 8.00 to 8.60

Record summary for CC(CCC(=O)N[C@@H](CC(=O)N[C@@H](CC(=O)N1CCN(C(=O)CN2CCN(CC(=O)O)CCN(CC(=O)O)CCN(CC(=O)O)CC2)C[C@H]1C(=O)NCCn1cc(COc2ccc3nc(S(N)(=O)=O)sc3c2)nn1)C(=O)O)C(=O)O)(c1ccc(O)cc1)c1ccc(O)cc1.[Lu+3] [Compound 107.26] : reported pKd = < 8.00

Value of pKd reported for the molecule CC(CCCC(=O)N1CCOC[C@H]1C(=O)N[C@@H](CC(=O)NC1(C(=O)NCCn2cc(C34CC(C(=O)Nc5nnc(S(N)(=O)=O)s5)(C3)C4)nn2)CCN(C(=O)CN2CCN(CC(=O)O)CCN(CC(=O)O)CCN(CC(=O)O)CC2)CC1)C(=O)O)(c1ccc(O)cc1)c1ccc(O)cc1.[Lu+3] [Compound 117.3] is < 8.00

Looking up CC(CCCC(=O)N1CCC(C(N)=O)(C(=O)NCC(=O)N2CCN(C(=O)CC[C@H](C(=O)O)N3CCN(CC(=O)O)CCN(CC(=O)O)CCN(CC(=O)O)CC3)C[C@H]2C(=O)NCCn2cc(C34CC(C(=O)Nc5nnc(S(N)(=O)=O)s5)(C3)C4)nn2)CC1)(c1ccc(O)c(F)c1)c1ccc(O)c(F)c1.[Lu+3] [Compound 127.8] , I see its pKd listed as < 8.00

According to the records, this molecule CC(CCCC(=O)N1CCCC[C@H]1C(=O)N[C@@H](CC(=O)N1CCN(C(=O)CN2CCN(CC(=O)O)CCN(CC(=O)O)CCN(CC(=O)O)CC2)C[C@@H]1C(=O)NCCn1cc(C23CC(C(=O)Nc4nnc(S(N)(=O)=O)s4)(C2)C3)nn1)C(=O)O)(c1ccc(O)cc1)c1ccc(O)cc1.[Lu+3] [Compound 109.40] displays pKd of < 8.00
